Hi! I'm sharing some pIC50 results obtained with UniProtKB Q7ZJM1.
Sequence (Q7ZJM1 whole entry): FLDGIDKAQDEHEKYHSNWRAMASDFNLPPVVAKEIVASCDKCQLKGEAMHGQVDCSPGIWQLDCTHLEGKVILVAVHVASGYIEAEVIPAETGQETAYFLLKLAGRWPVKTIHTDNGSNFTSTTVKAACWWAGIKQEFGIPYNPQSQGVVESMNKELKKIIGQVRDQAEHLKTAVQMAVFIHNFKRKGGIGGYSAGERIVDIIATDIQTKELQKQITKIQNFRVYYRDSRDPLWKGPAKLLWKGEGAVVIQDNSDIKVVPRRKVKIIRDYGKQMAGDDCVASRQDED
Please report pIC50 as the negative decimal logarithm of the molar concentration, giving only the number.

{"COMPOUND": "CN1C(=O)NC(=O)CC1c1nc(C(=O)NCc2ccc(F)cc2)c(O)c2ncccc12 (racemic)", "ATTRIBUTE_MEASURED": "pIC50", "RECORDED_RESULT": 7.90}
{"COMPOUND": "O=C(NCc1ccc(F)cc1)c1ncc2cccnc2c1O", "ATTRIBUTE_MEASURED": "pIC50", "RECORDED_RESULT": 7.48}
{"COMPOUND": "CN1C(=O)CC(c2nc(C(=O)NCc3ccc(F)cc3)c(O)c3ncccc23)N(C)C1=O (racemic)", "ATTRIBUTE_MEASURED": "pIC50", "RECORDED_RESULT": 8.06}
{"COMPOUND": "O=C1CC(c2nc(C(=O)NCc3ccc(F)cc3)c(O)c3ncccc23)NC(=O)N1 (single isomer, unassigned; (-))", "ATTRIBUTE_MEASURED": "pIC50", "RECORDED_RESULT": 7.88}
{"COMPOUND": "CN1C(=O)CC(c2nc(C(=O)NCc3ccc(F)cc3)c(O)c3ncccc23)N(C)C1=O (single isomer, unassigned; (+))", "ATTRIBUTE_MEASURED": "pIC50", "RECORDED_RESULT": 7.95}
{"COMPOUND": "CN1C(=O)CC(c2nc(C(=O)NCc3ccc(F)cc3)c(O)c3ncccc23)N(C)C1=O (stereo in doubt; 14)", "ATTRIBUTE_MEASURED": "pIC50", "RECORDED_RESULT": 7.56}
{"COMPOUND": "O=C1CC(c2nc(C(=O)NCc3ccc(F)cc3)c(O)c3ncccc23)NC(=O)N1 (racemic)", "ATTRIBUTE_MEASURED": "pIC50", "RECORDED_RESULT": 8.00}
{"COMPOUND": "CN1C(=O)CC(c2nc(C(=O)NCc3ccc(F)cc3)c(O)c3ncccc23)NC1=O (racemic)", "ATTRIBUTE_MEASURED": "pIC50", "RECORDED_RESULT": 7.89}

Request: # query: pIC50 | item O=C1CC(c2nc(C(=O)NCc3ccc(F)cc3)c(O)c3ncccc23)NC(=O)N1 (single isomer, unassigned; (+)) | system: UniProtKB Q7ZJM1
Result: 7.96

Request: # query: pIC50 | item CN1C(=O)CC(c2nc(C(=O)NCc3ccc(F)cc3)c(O)c3ncccc23)N(C)C1=O (single isomer, unassigned; (-)) | system: UniProtKB Q7ZJM1
Result: 7.46

* * *

experiment: Human plasma albumin binding in pH 7.4 at RT; type: ADME, cell-free
The entries below come with measured Activity values attached.
All answers are understood in %, so give the number only.

Guide cases for Activity, answers given:
{"MOLECULE": "CN1C(=O)CC(c2nc(C(=O)NCc3ccc(F)cc3)c(O)c3ncccc23)N(C)C1=O (single isomer, unassigned; (-))", "UNIT_SYMBOL": "%", "Activity": 95}
{"MOLECULE": "CN1C(=O)CC(c2nc(C(=O)NCc3ccc(F)cc3)c(O)c3ncccc23)N(C)C1=O (stereo in doubt; 14)", "UNIT_SYMBOL": "%", "Activity": 97.8}
{"MOLECULE": "CN1C(=O)CC(c2nc(C(=O)NCc3ccc(F)cc3)c(O)c3ncccc23)N(C)C1=O (racemic)", "UNIT_SYMBOL": "%", "Activity": 94.3}
{"MOLECULE": "O=C1CC(c2nc(C(=O)NCc3ccc(F)cc3)c(O)c3ncccc23)NC(=O)N1 (racemic)", "UNIT_SYMBOL": "%", "Activity": 92.1}
{"MOLECULE": "CN1C(=O)CC(c2nc(C(=O)NCc3ccc(F)cc3)c(O)c3ncccc23)N(C)C1=O (single isomer, unassigned; (+))", "UNIT_SYMBOL": "%", "Activity": 96}

Request: I am curious: what Activity value has been reported for O=C(NCc1ccc(F)cc1)c1ncc2cccnc2c1O ?
Result: 99.2
